Source listed as patent US20250034130A1.

The entries below are paired with their reported Purity change.
- protocol-summary: Light stability (Chinese Pharmacopoeia method, purity by UPLC)
- Format: physicochemical
- condition-set: 1 week; light not less than 1.2×10^6 lux-hr, near-UV not less than 200 W-hr/m^2
- Source text: The related substance in the present disclosure was detected by UPLC and the parameters are shown below. […]
Note: unit % is implicit; provide only the numeric part.

>>> reported_value("C=CC(=O)N1CCC[C@@H](n2c(=O)n(-c3ccc(Oc4ccccc4)cc3)c3c(N)nccc32)C1 [Form CSII]")
"−0.02"

# evaluate next
For C=CC(=O)N1CCC[C@@H](n2c(=O)n(-c3ccc(Oc4ccccc4)cc3)c3c(N)nccc32)C1 [Amorphous, reference compound] , what is its reported Purity change?
−0.11

###

- protocol-summary: Physical and chemical stability on storage in opened packages (purity by UPLC, solid form by XRPD)
- Type: physicochemical
- condition-set: Initial
The entries below are paired with their reported Purity.
Note: unit % is implicit; provide only the numeric part.

Solved entries:
>>> reported_value("C=CC(=O)N1CCC[C@@H](n2c(=O)n(-c3ccc(Oc4ccccc4)cc3)c3c(N)nccc32)C1 [Form CSIII]")
99.91
>>> reported_value("C=CC(=O)N1CCC[C@@H](n2c(=O)n(-c3ccc(Oc4ccccc4)cc3)c3c(N)nccc32)C1 [Amorphous, reference compound]")
99.80
>>> reported_value("C=CC(=O)N1CCC[C@@H](n2c(=O)n(-c3ccc(Oc4ccccc4)cc3)c3c(N)nccc32)C1 [Form CSII]")
99.86

# evaluate next
For C=CC(=O)N1CCC[C@@H](n2c(=O)n(-c3ccc(Oc4ccccc4)cc3)c3c(N)nccc32)C1 [Form CSIV] , what is its reported Purity?
99.74
